target.of.assay: P2Y12 receptor (Homo sapiens)
assay.procedure: [33P]2MeS-ADP binding to washed human platelet membranes (Assay 1)
Parameters: the P2Y12 receptor, which is found on the surface of platelets; tissue Interstate Blood bank, Memphis, Tenn; host or cells: washed human platelets from platelet rich plasma
condition.context: washed human platelet membranes, competition with [33P]2MeS-ADP
result.type: IC50 (µM)
Provide only the numeric value, understood in µM.

// sample `CCc1cc2c(N3CCN(C(=O)Cc4ccccc4)CC3)nc(SCc3ccco3)nc2s1` , its IC50 was 7.93

---

target.of.assay: P2Y12 receptor (Homo sapiens)
assay.procedure: [33P]-2MeS-ADP binding to recombinant human P2Y12 membranes (Assay 3)
Set-up: expressed in transfected cells; host or cells: HEK cells
condition.context: HEK cell membranes expressing human P2Y12, competition with 33P 2MeS-ADP
result.type: IC50 (µM)

Worked cases, IC50 given:
CCc1cc2c(N3CCN(C(=O)c4csc(-c5ccccc5)n4)CC3)nc(SCC(=O)OC)nc2s1 [Example 69] ... 0.0878
CCc1cc2c(N3CCN(C(=O)c4ccc(C(=O)OC)cc4)CC3)nc(SCC(=O)OC)nc2s1 [Example 80] ... 3.78

A = CCc1cc2c(N3CCN(C(=O)CC(=O)OC)CC3)nc(SCC(=O)OC)nc2s1 [Example 44]
B = CCc1cc2c(N3CCN(C(=O)C4COc5ccccc5O4)CC3)nc(SCC(=O)OC)nc2s1 (stereo not shown) [Example 38]
Hey, between A and B which has a smaller measured IC50? Identify your pick by its label.
B
(B: 0.6 µM, A: 4.03 µM)

---

target.of.assay: P2Y12 receptor (Homo sapiens, UniProt Q9H244)
Sequence (Q9H244 whole entry): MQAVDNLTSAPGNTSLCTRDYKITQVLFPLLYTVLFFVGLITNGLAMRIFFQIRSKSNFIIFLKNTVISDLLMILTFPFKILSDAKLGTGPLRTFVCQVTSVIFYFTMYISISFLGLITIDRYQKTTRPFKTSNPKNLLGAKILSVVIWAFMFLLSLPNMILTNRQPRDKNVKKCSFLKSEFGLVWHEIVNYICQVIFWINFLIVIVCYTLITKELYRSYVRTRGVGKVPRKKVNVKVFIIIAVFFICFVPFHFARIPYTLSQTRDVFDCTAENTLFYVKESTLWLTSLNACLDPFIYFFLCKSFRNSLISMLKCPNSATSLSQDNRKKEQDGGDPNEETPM
assay.procedure: [33P]-2MeS-ADP binding to recombinant human P2Y12 membranes (Assay 3)
Design: expressed in transfected cells; host or cells: HEK cells
condition.context: at highest concentration tested, 10 μM
result.type: inhibition at 10 µM (%)

Worked cases, inhibition at 10 µM given:
CCc1cc2c(N3CCN(C(=O)c4cccc(C#N)c4)CC3)nc(SCC(=O)OC)nc2s1 ... 91.3
CCc1cc2c(N3CCN(C(=O)Cc4ccccc4)CC3)nc(SC[C@H](N)C(=O)OC)nc2s1 ... 88.7
CCc1cc2c(N3CCN(C(=O)Cc4ccccc4)CC3)nc(SC(C)C(=O)NCC(=O)O)nc2s1 (stereo not drawn) ... 90.5
CCc1cc2c(N3CCN(C(=O)Cc4ccccc4)CC3)nc(SCC(=O)O)nc2s1 ... 92
CCc1cc2c(N3CCN(C(=O)c4ccc(C)cc4)CC3)nc(SCC(=O)OC)nc2s1 ... 42.5

P = CCc1cc2c(N3CCN(C(=O)c4cccc(C(F)(F)F)c4)CC3)nc(SCC(=O)OC)nc2s1
Q = CCc1cc2c(N3CCN(C(=O)c4c(-c5ccc(OC)cc5)noc4C)CC3)nc(SCC(=O)OC)nc2s1
R = CCc1cc2c(N3CCN(C(=O)c4cccc5ccccc45)CC3)nc(SCC(=O)OC)nc2s1
Reorder: inhibition at 10 µM, max to min. Please list each label once, in the requested order.
Q, P, R
(Q: 96.4%, P: 60.8%, R: 40.3%)

I = CCc1cc2c(N3CCN(C(=O)Cc4ccccc4)CC3)nc(S(=O)(=O)CC(=O)OC)nc2s1
II = CCc1cc2c(N3CCN(C(=O)/C=C/c4ccccc4)CC3)nc(SCC(=O)OC)nc2s1
Return label of the item with the larger inhibition at 10 µM. Candidates: I , II . Identify your pick by its label.
I
(I: 81.3%, II: 48.6%)

---

target.of.assay: UniProtKB Q9H244
assay.procedure: [33P]-2MeS-ADP binding to recombinant human P2Y12 membranes (Assay 3)
Set-up: expressed in transfected cells; host or cells: HEK cells
condition.context: HEK cell membranes expressing human P2Y12, competition with 33P 2MeS-ADP
result.type: IC50 (nM)

Worked cases, IC50 given:
CCc1cc2c(N3CCN(C(=O)c4ccc5nccnc5c4)CC3)nc(SCC(=O)OC)nc2s1 ... 4850
CCc1cc2c(N3CCN(C(=O)c4ccc(-c5ccccc5)cc4)CC3)nc(SCCO)nc2s1 ... 52
CCc1cc2c(N3CCN(C(=O)c4ccc(-c5ccccc5)cc4)CC3)nc(SC(C)C(C)=O)nc2s1 (stereo not shown) ... 160

A = CCc1cc2c(N3CCN(C(=O)c4cc(F)cc(F)c4)CC3)nc(SCC(=O)OC)nc2s1
B = CCc1cc2c(N3CCN(C(=O)c4ccc(-c5ccccc5)cc4)CC3)nc(SCCNC(C)=O)nc2s1
C = CCc1cc2c(N3CCN(C(=O)CCCCC(=O)OC)CC3)nc(SCC(=O)OC)nc2s1
D = CCc1cc2c(N3CCN(C(=O)c4nnc(-c5ccccc5)o4)CC3)nc(SCC(=O)OC)nc2s1
E = CCc1cc2c(N3CCN(C(=O)c4ccc(-c5ccccc5)cc4)CC3)nc(SCC(O)CO)nc2s1 (stereo not shown)
Reorder: IC50, max to min. Please list each label once, in the requested order.
C, A, D, B, E
(C: 2380 nM, A: 1580 nM, D: 144 nM, B: 100 nM, E: 38 nM)

P = CCc1cc2c(N3CCN(C(=O)c4ccc(C#N)cc4)CC3)nc(SCC(=O)OC)nc2s1
Q = C#CCCCCC(=O)N1CCN(c2nc(SCC(=O)OC)nc3sc(CC)cc23)CC1
Hey, between P and Q which has a smaller measured IC50? Identify your pick by its label.
Q
(Q: 220 nM, P: 2670 nM)

---

target.of.assay: P2Y12 receptor (Homo sapiens, UniProt Q9H244)
assay.procedure: [33P]-2MeS-ADP binding to recombinant human P2Y12 membranes (Assay 3)
Design: expressed in transfected cells; host or cells: HEK cells
condition.context: HEK cell membranes expressing human P2Y12, competition with 33P 2MeS-ADP
result.type: Ki (µM)

C#CCCC(=O)N1CCN(c2nc(SCC(=O)OC)nc3sc(CC)cc23)CC1 [Example 37] ... 0.84
CCc1cc2c(N3CCN(C(=O)c4cccc(C)c4)CC3)nc(SCC(=O)OC)nc2s1 [Example 61] ... 1.24
CCc1cc2c(N3CCN(C(=O)c4csc(-c5cccnc5)n4)CC3)nc(SCC(=O)OC)nc2s1 [Example 81] ... 1.07

---

target.of.assay: P2Y12 receptor (Homo sapiens, UniProt Q9H244)
assay.procedure: [33P]-2MeS-ADP binding to recombinant human P2Y12 membranes (Assay 3)
Parameters: expressed in transfected cells; host or cells: HEK cells
condition.context: HEK cell membranes expressing human P2Y12, competition with 33P 2MeS-ADP
pKi: −log10 of the molar value.
result.type: pKi

CCOc1cccc(C(=O)N2CCN(c3nc(SCC(=O)OC)nc4sc(CC)cc34)CC2)c1 ... 6.14
CCc1cc2c(N3CCN(C(=O)c4ccc(OC)cc4)CC3)nc(SCC(=O)OC)nc2s1 ... 5.83
CCc1cc2c(N3CCN(C(=O)c4cc(F)cc(F)c4)CC3)nc(SCC(=O)OC)nc2s1 ... 5.98

---

target.of.assay: P2Y12 receptor (Homo sapiens, UniProt Q9H244)
assay.procedure: [33P]-2MeS-ADP binding to recombinant human P2Y12 membranes (Assay 3)
Design: expressed in transfected cells; host or cells: HEK cells
condition.context: at highest concentration tested, 10 μM
result.type: inhibition at 10 µM (%)

CCc1cc2c(N3CCN(C(=O)Cc4ccccc4)CC3)nc(SCC(O)CO)nc2s1 (centres unmarked) ... 83.4
CCc1cc2c(N3CCN(C(=O)Cc4ccccc4)CC3)nc(SC(C)C(=O)O)nc2s1 (centres unmarked) ... 88.6
CCc1cc2c(N3CCN(C(=O)Cc4ccccc4)CC3)nc(SCC(=O)NC)nc2s1 ... 88.2
CCc1cc2c(N3CCN(C(=O)c4ccc5ccoc5c4)CC3)nc(SCC(=O)OC)nc2s1 ... 81
CCc1cc2c(N3CCN(C(=O)c4ccc(OC)cc4)CC3)nc(SCC(=O)OC)nc2s1 ... 67.1

---

target.of.assay: P2Y12 receptor (Homo sapiens, UniProt Q9H244)
assay.procedure: [33P]-2MeS-ADP binding to recombinant human P2Y12 membranes (Assay 3)
Design: expressed in transfected cells; host or cells: HEK cells
condition.context: HEK cell membranes expressing human P2Y12, competition with 33P 2MeS-ADP
pIC50: −log10 of the molar value.
result.type: pIC50

CCCCOc1ccc(C(=O)N2CCN(c3nc(SCC(=O)OC)nc4sc(CC)cc34)CC2)cc1 ... 6.43
CCc1cc2c(N3CCN(C(=O)CCC(=O)OC)CC3)nc(SCC(=O)OC)nc2s1 ... 5.24
CCOc1cccc(C(=O)N2CCN(c3nc(SCC(=O)OC)nc4sc(CC)cc34)CC2)c1 ... 5.93
CCc1cc2c(N3CCN(C(=O)c4cc(N(C)C)nc(N(C)C)n4)CC3)nc(SCC(=O)OC)nc2s1 ... 6.17
CCc1cc2c(N3CCN(C(=O)c4ccc(OC(F)(F)F)cc4)CC3)nc(SCC(=O)OC)nc2s1 ... 5.26

I = CCc1cc2c(N3CCN(C(=O)c4ccccc4)CC3)nc(SCC(=O)OC)nc2s1
II = CCc1cc2c(N3CCN(C(=O)c4ccc(-c5ccccc5)cc4)CC3)nc(SCC(N)=O)nc2s1
Hey, between I and II which has a smaller measured pIC50? Identify your pick by its label.
I
(I: 5.52, II: 7.51)

I = CCc1cc2c(N3CCN(C(=O)c4ccc(-n5cccn5)cc4)CC3)nc(SCC(=O)OC)nc2s1
II = CCc1cc2c(N3CCN(C(=O)c4c(-c5ccc(OC)cc5)noc4C)CC3)nc(SCC(=O)OC)nc2s1
III = CCc1cc2c(N3CCN(C(=O)c4cc(F)ccc4F)CC3)nc(SCC(=O)OC)nc2s1
IV = C#CCCC(=O)N1CCN(c2nc(SCC(=O)OC)nc3sc(CC)cc23)CC1
Endpoint returns the given molecules ordered by ascending pIC50. Please list each label once, in the requested order.
II, III, IV, I

a = CCCOc1ccc(C(=O)N2CCN(c3nc(SCC(=O)OC)nc4sc(CC)cc34)CC2)cc1
b = CCc1cc2c(N3CCN(C(=O)/C=C/c4ccccc4)CC3)nc(SCC(=O)OC)nc2s1
Return label of the item with the larger pIC50. Candidates: a , b . Identify your pick by its label.
a
